Origin of measurements: PubChem BioAssay (NCATS)

System: Zika virus NS2B-NS3 protease (linked construct)
Assay: 384 well plate NINDS Rhodamine confirmatory qHTS for Zika virus inhibitors (AID 1347164);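 note: fluorescence from protease cleavage of Ac-LKRR-rhodamine 110 substrate; nearly all actives have a fitted effect of over 65% in size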
Conditions: rhodamine-110 peptide substrate fluorescence; series mostly up to 100 µM
Inconclusive results are not listed. The source made the active and inactive calls. Calls come from the whole dose curve; as a rule, active = well fitted inhibition curve with a large enough effect; inconclusive = small, poorly fitted or top-dose-only effect; inactive = no such curve, though single readings can be large or run the other way.
Possible outcomes: y for active, n for inactive

COMPOUND: CN(C)[C@@H]1C(=O)C(C(N)=O)=C(O)[C@@]2(O)C(=O)C3=C(O)c4c(O)cccc4[C@@](C)(O)[C@H]3C[C@@H]12
LABEL CLASS: n

COMPOUND: O=c1oc2ccccc2c(O)c1C(CC(O)c1ccc(-c2ccc(Br)cc2)cc1)c1ccccc1 (centres undefined)
LABEL CLASS: y

COMPOUND: N[C@@H](Cc1ccc(Oc2cc(I)c(O)c(I)c2)c(I)c1)C(=O)O
LABEL CLASS: n

COMPOUND: Cc1cc(SCc2sc(-c3ccc(C(F)(F)F)c(F)c3)nc2C)ccc1OCC(=O)O
LABEL CLASS: y

###

Test: Cell Viability - Jurkat (AID 426);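 note: potency is the fitted concentration of half-maximal effect; cells exposed to compound for 40 hours at 37 °C before ATP read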
Conditions: qHTS
Records with an inconclusive call do not appear. The source made the active and inactive calls.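 How the source made its calls: active means dose-dependent loss of cell ATP signal giving a full or clear fitted curve, ranked by lower potency value; inconclusive means weak partial curve or response only at the top dose; inactive means no loss of viability signal.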
Possible outcomes: Y (active), N (inactive)

COMPOUND: CCOP(=S)(OCC)Oc1cc(C)nc(C(C)C)n1
LABEL CLASS: N
//
COMPOUND: N[C@@H](Cc1ccc(N(CCCl)CCCl)cc1)C(=O)O
LABEL CLASS: Y
//
COMPOUND: OCCOc1ccccc1
LABEL CLASS: N
//
COMPOUND: c1ccc2c(c1)Nc1ccccc1S2
LABEL CLASS: N
//
COMPOUND: CCCC(C)(COC(N)=O)COC(=O)NC(C)C (stereo not given)
LABEL CLASS: N

###

Assay: qHTS drug screen for cell cycle checkpoint inhibitors in PARPi-resistant BRCA-mutant ovarian cancer cell lines. (AID 1963452)
Details: PEO1/OlaR viability, CellTiter-Glo luminescence, 96 h; active compounds read low
OBSERVATION TYPE: Z-AUC

CPD SMILES: C[C@]12CCC(=O)C(O)=C1CC[C@@H]1[C@@H]2CC[C@]2(C)C(=O)CC[C@@H]12
OBSERVATION TYPE: Z-AUC
READOUT VALUE: 0.873
//
CPD SMILES: NN=C(N)N
OBSERVATION TYPE: Z-AUC
READOUT VALUE: 0.673
//
CPD SMILES: COC[C@@H](NC(C)=O)C(=O)NCc1ccccc1
OBSERVATION TYPE: Z-AUC
READOUT VALUE: -0.757
//
CPD SMILES: Fc1ccc(C(OCCN2CCN(CCCc3ccccc3)CC2)c2ccc(F)cc2)cc1
OBSERVATION TYPE: Z-AUC
READOUT VALUE: 0.198
//
CPD SMILES: CN(C)[C@@H]1C(=O)C(C(N)=O)=C(O)[C@@]2(O)C(=O)C3=C(O)c4c(O)cccc4[C@@](C)(O)[C@H]3C[C@@H]12
OBSERVATION TYPE: Z-AUC
READOUT VALUE: 1.23
//
CPD SMILES: O=c1[nH]c2ccccc2n1CCCN1CCC(n2c(=O)[nH]c3cc(Cl)ccc32)CC1
OBSERVATION TYPE: Z-AUC
READOUT VALUE: 1.58
//
CPD SMILES: Cn1cc(C2=C(c3cn(C4CCN(Cc5ccccn5)CC4)c4ccccc34)C(=O)NC2=O)c2ccccc21
OBSERVATION TYPE: Z-AUC
READOUT VALUE: -0.351

###

Experiment: Drug repurposing screens with cells derived from glioblastoma tumor samples (AID 1345199); note: % is set by controls: 0 for no effect and ±100 for the full control effect; nearly all actives have a fitted effect of over 40% in size
Conditions: GBM patient neurospheres viability, ATP luminescence, 48 h; at 45.9 µM (top of the series); tumour line D
Records with an inconclusive call do not appear.
Let's look at some compounds and their measured activity, negative = cell killing.

COMPOUND: C#CCN(C)[C@H](C)Cc1ccccc1
activity, negative = cell killing, %: -14.3
--
COMPOUND: CCCC(C)(COC(N)=O)COC(=O)NC(C)C (centres undefined)
activity, negative = cell killing, %: -17.6
--
COMPOUND: O=C(O)c1ccc2[nH]cc(CCCCN3CC=C(c4ccccc4)CC3)c2c1
activity, negative = cell killing, %: -15.3
--
COMPOUND: NP(N)(=O)NC(=O)c1ccc(F)cc1
activity, negative = cell killing, %: -14.8
--
COMPOUND: CCN(CC)CCOC(=O)C(O)(c1ccccc1)c1ccccc1
activity, negative = cell killing, %: -0.674
--
COMPOUND: CCCN1CCC[C@@H]2Cc3nc(N)ncc3C[C@H]21
activity, negative = cell killing, %: -0.18
--
COMPOUND: CC[N+](CC)(CC)CC
activity, negative = cell killing, %: -7.23
--
COMPOUND: CC(CCc1ccccc1)NC(C)C(O)c1ccc(O)cc1 (centres undefined)
activity, negative = cell killing, %: 2.61
--
COMPOUND: CC(=O)Nc1cc([As](=O)(O)O)ccc1O
activity, negative = cell killing, %: -5.27
--
COMPOUND: NN=C(N)N
activity, negative = cell killing, %: 9.02
--
COMPOUND: C=CCN1CC[C@]23c4c5ccc(O)c4O[C@H]2C(=O)CC[C@@]3(O)[C@H]1C5
activity, negative = cell killing, %: -22.2
--
COMPOUND: c1ccc(C2CC2)c(OCC2=NCCN2)c1
activity, negative = cell killing, %: -19.1
--
COMPOUND: Oc1cccc2cccnc12
activity, negative = cell killing, %: -9.58
--
COMPOUND: NCCc1cc(O)c(O)cc1O
activity, negative = cell killing, %: -22
--
COMPOUND: C=C1CC[C@@]2(O)[C@H]3Cc4ccc(O)c5c4[C@@]2(CCN3CC2CC2)[C@H]1O5
activity, negative = cell killing, %: 5.06
--
COMPOUND: CC(C)(N)Cc1ccc(Cl)cc1
activity, negative = cell killing, %: -8.85
--
COMPOUND: COc1ccc(C(CN(C)C)C2(O)CCCCC2)cc1 (centres undefined)
activity, negative = cell killing, %: 1.59
--
COMPOUND: COc1ccccc1N1CCNCC1
activity, negative = cell killing, %: -3.17
--
COMPOUND: CCCC1CCCCN1 (centres undefined)
activity, negative = cell killing, %: -32.7
--
COMPOUND: Oc1ccccc1-c1ccccc1
activity, negative = cell killing, %: -15.4
--
COMPOUND: NCC(CC(=O)O)c1ccc(Cl)cc1 (centres undefined)
activity, negative = cell killing, %: -15.2
--
COMPOUND: CC(C)=CCOc1c2occc2cc2ccc(=O)oc12
activity, negative = cell killing, %: -22.8
--
COMPOUND: O=C(NC(O)C(Cl)(Cl)Cl)NC(O)C(Cl)(Cl)Cl (centres undefined)
activity, negative = cell killing, %: 2.45
--
COMPOUND: CCC1(C2=NCCN2)Cc2ccccc2O1 (centres undefined)
activity, negative = cell killing, %: -18

###

Assay: Quantitative High-Throughput drug screen in 47 multiple myeloma cell lines against the NCATS MIPE library collection: KMS12BM_JCRB cell viability assay (AID 1918971); note: nearly all actives have a fitted effect of over 35% in size
Details: KMS12BM myeloma viability, CellTiter-Glo ATP, 48 h; series mostly up to 45.8 µM
Inconclusive results are not listed. Active and inactive are the calls of the source. The call rests on the fitted dose curve; in most records, active means well fitted cell-killing curve with a large enough effect; inconclusive means small, poorly fitted or top-dose-only effect, or effect the other way; inactive means no such curve, though single readings can be large or run the other way.
Possible outcomes: active, inactive

CPD SMILES: NCC1(CC(=O)O)CCCCC1
LABEL CLASS: inactive
--
CPD SMILES: C[C@@H]1O[C@@H](O[C@H]2C[C@@H](O)[C@]3(CO)[C@H]4[C@H](O)C[C@]5(C)[C@@H](C6=CC(=O)OC6)CC[C@]5(O)[C@@H]4CC[C@]3(O)C2)[C@H](O)[C@H](O)[C@H]1O
LABEL CLASS: active
--
CPD SMILES: Fc1ccc(C(OCCN2CCN(CCCc3ccccc3)CC2)c2ccc(F)cc2)cc1
LABEL CLASS: active

###

Experiment: Quantitative High-Throughput drug screen in 47 multiple myeloma cell lines against the NCATS MIPE library collection: UTMC2_PLB cell viability assay (AID 1919868); note: nearly all actives have a fitted effect of over 55% in size; note: potency is the fitted concentration of half-maximal effect
Details: CellTiter-Glo ATP luminescence, 48 h
Records with an inconclusive call do not appear. Activity calls are given as the source filed them. The call rests on the fitted dose curve; in most records, active means well fitted cell-killing curve with a large enough effect; inconclusive means small, poorly fitted or top-dose-only effect, or effect the other way; inactive means no such curve, though single readings can be large or run the other way.

MOLECULE: CC(O)(CS(=O)(=O)c1ccc(F)cc1)C(=O)Nc1ccc(C#N)c(C(F)(F)F)c1 (stereo not given)
Potency: 4180 nM (active)
//
MOLECULE: Cc1sc2c(c1C)C(c1ccc(Cl)cc1)=N[C@@H](CC(=O)OC(C)(C)C)c1nnc(C)n1-2
Potency: 662 nM (active)
//
MOLECULE: COc1ccc(C(=O)c2c(C)n(CCN3CCOCC3)c3ccccc23)cc1
Potency: inactive
//
MOLECULE: COc1ccc2c(c1OC)CN1CCc3cc4c(cc3C1C2)OCO4 (stereo not given)
Potency: 2090 nM (active)
//
MOLECULE: COc1ccc(C(CN(C)C)C2(O)CCCCC2)cc1 (stereo not given)
Potency: inactive
